Each entry below carries its reported self-cleavage.
B1: Hairpin Ribozyme (parent)
chain: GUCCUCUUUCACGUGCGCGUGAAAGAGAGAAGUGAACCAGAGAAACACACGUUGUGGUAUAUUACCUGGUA

- Variants of: B1
- Assay method text: self-cleavage, relative activity (ratio to wild type); higher = more cleavage; co-transcriptional

{"columns": ["Mutation id", "self-cleavage"],
 "data": [
  ["C16A G57A", 0.129],
  ["A24C G57U", 0.14],
  ["C18G A64U", 0.18],
  ["U20G G54U", 0.595],
  ["G15A G56U", 0.134],
  ["A30C A36U", 0.122],
  ["U5A G51A", 0.393],
  ["A26U A64U", 0.175],
  ["A23U G57C", 0.211],
  ["G51C G68U", 0.227],
  ["A28C G51C", 0.336],
  ["A24U A44G", 0.119],
  ["G17C A41G", 0.591],
  ["A23C G68A", 0.26],
  ["G13A C38A", 0.154],
  ["U55C A71G", 0.388],
  ["C10U U20G", 0.498],
  ["A39C U62G", 0.108],
  ["A23C G34A", 1.1],
  ["G19C A22U", 0.487],
  ["A43G A71C", 0.458],
  ["C16G A45U", 0.229]
]}
